# test_system: Ubiquitin carboxyl-terminal hydrolase isozyme L3 (Mus musculus)
# Sequence (Q9JKB1 whole entry): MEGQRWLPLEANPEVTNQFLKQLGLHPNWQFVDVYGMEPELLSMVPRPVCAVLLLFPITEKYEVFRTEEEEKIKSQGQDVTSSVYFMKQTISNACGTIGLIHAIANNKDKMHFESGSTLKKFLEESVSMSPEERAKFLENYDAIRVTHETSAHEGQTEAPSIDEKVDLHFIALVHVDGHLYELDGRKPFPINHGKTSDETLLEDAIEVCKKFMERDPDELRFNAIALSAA
Checkbox rule: IC50 lower than 50 µM = True; IC50 not lower than 50 µM = False.

As a guide, the following entries are already answered.
In [3]: df
Out[3]:
                                   compound  class_label
0  COc1ccccc1-c1cc(-c2ccccc2)nc(SCC(=O)O)c1C#N         True
1    Cc1ccc(-c2cc(-c3ccccc3)nc(N(C)N)n2)cc1        False
2        Oc1ccc(Oc2ccc(Oc3ccc(O)cc3)cc2)cc1         True
3  COc1ccc(-n2c(C=Cc3ccc(O)c(OC)c3)nc3ccccc3c2=O)cc1        False
4  CC(C)(C)OC(=O)NCCCC[C@H](NC(=O)c1[nH]cnc1C(=O)Nc1ccc(Cl)cc1)C(=O)OC(C)(C)C        False

Just wondering, is IC50 of CCC1=NN(C(=O)c2ccccc2O)C(O)(c2ccccc2)C1 (configuration not stated) below 50 µM?
False

Just wondering, is IC50 of CCCCn1c(=O)c(C(=O)NCc2ccccc2Cl)c(O)c2ccccc21 below 50 µM?
True

Just wondering, is IC50 of Cc1cccc(NC(=O)c2nc[nH]c2C(=O)N[C@@H](CC(C)C)C(=O)OCc2ccccc2)c1 below 50 µM?
True

Just wondering, is IC50 of Cc1cc(Cl)c2oc(C(=O)N3CCC(O)(c4ccccc4)CC3)c(C)c2c1 below 50 µM?
True

Just wondering, is IC50 of COC(=O)[C@H]1[C@H](CCc2ccccc2)NC(=O)N(Cc2ccccc2)[C@@H]1C below 50 µM?
False

Just wondering, is IC50 of CCOC(=O)C1=C(C)N=c2s/c(=C\c3ccc(O)c([N+](=O)[O-])c3)c(=O)n2C1c1ccccc1OC (configuration not stated) below 50 µM?
True

Just wondering, is IC50 of CCN(CC)c1nc(Nc2ccc([N+](=O)[O-])cc2)nc(N(CC)CC)n1 below 50 µM?
True

###

# test_system: Ubiquitin carboxyl-terminal hydrolase isozyme L1 (Mus musculus)
# Sequence (Q9R0P9 whole entry): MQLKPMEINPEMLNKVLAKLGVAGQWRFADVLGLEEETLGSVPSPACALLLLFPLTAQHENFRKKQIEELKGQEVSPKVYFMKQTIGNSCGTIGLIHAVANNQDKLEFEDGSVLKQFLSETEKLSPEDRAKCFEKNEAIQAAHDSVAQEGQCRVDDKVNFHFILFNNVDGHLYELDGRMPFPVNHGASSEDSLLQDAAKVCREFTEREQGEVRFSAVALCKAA
readout_name: IC50
Quick note: number first, unit second.

Please look up its IC50: CC(C)NC(=S)NC(c1ccccc1)(c1ccccc1)c1ccccc1
2.7 µM

Please look up its IC50: CCCCn1c(=O)c(C(=O)NCc2ccccc2)c(O)c2ccccc21
6.1 µM

Please look up its IC50: CC(=NNC(=O)c1ccc(C)cc1)c1c(C)[nH]n(-c2ccccc2)c1=O
95 µM

Please look up its IC50: COc1cc(OC)c([C@H]2C=C(C)[C@H]3C[C@@H]2C3(C)C)c(OC)c1
80 µM

Please look up its IC50: COc1cccc(CN=Nc2cc(N3CCOCC3)ncn2)c1O
6.1 µM
